- assayOverview: antimalarial activity against Dd2 strain (AID 2302);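 further: 0% = DMSO untreated growth and 100% = chloroquine plus artemisinin killed control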
- conditionDetails: P. falciparum Dd2 in RBCs, LDH growth readout, 72 h; at 2 µM; active compounds read high

compound | growth inhibition / %
Cc1ccc2sc(N(CCCn3ccnc3)C(=O)c3ccco3)nc2c1C | 98
CCN(CC)CCN(Cc1ccc(-c2ccc(C(F)(F)F)cc2)cc1)C(=O)Cn1c(CCc2cccc(F)c2F)cc(=O)c2c1CCCC2 | 95
CCC(=O)Nc1nnc(Cc2ccc(OC)c(OC)c2)s1 | 1
O=C(c1cc2c(s1)-c1cccc(Cl)c1SC2)N1CCN(c2ccncc2)CC1 | 36
CC(C)c1ccc(-c2noc(SCC(=O)N3CCCCC3C)n2)cc1 (stereo not given) | 92
O=[N+]([O-])c1ccc(-c2ccc(C=NNc3nc(Nc4ccccc4)nc(Nc4ccccc4)n3)o2)cc1 | 12
Cc1cc(N[C@@H](Cc2ccccc2)C(=O)NCCc2ccccc2)nc(NCCc2cccs2)n1 | 84
CN(C(=O)Nc1ccc(C(F)(F)F)cc1)C1CCN(CCCCCNC(=O)/C=C/c2ccc(Cl)c(Cl)c2)CC1 | 38
CC(C)n1ncc2c(C(=O)N3CCCC4CCCCC43)cc(C3CC3)nc21 (stereo not given) | 92
CCc1cc(-c2onc(C)c2-c2cc3ccccc3o2)c(O)cc1OC | 33

----------
Listed below: growth inhibition values for each entry.
- assayOverview: antimalarial activity against Dd2 strain (AID 2302);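 further: 0% = DMSO untreated growth and 100% = chloroquine plus artemisinin killed control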
- conditionDetails: P. falciparum Dd2 in RBCs, LDH growth readout, 72 h; at 2 µM; active compounds read high

compound | growth inhibition [%]
CC1CCC(C(C)C)C(OC(=O)CSc2nnc3c(n2)[nH]c2ccccc23)C1 (stereo not given) | 74
COc1cc2c(cc1C(F)(F)F)N(C(=O)Nc1cccc(-c3ccc(CN(C)C)cc3)c1)CC2 | 93
COc1cc(NCC(O)CNc2cc(OC)c3ccccc3n2)nc2ccccc12 | 93
COc1ccc(-c2cccc(NC(=O)c3ccc(Cl)cc3)c2)cc1CN(C)CCN(C)C | 61
COc1cccc(Nc2c(C(N)=O)cnc3ccc(-c4ccc(S(C)=O)cc4)cc23)c1 (stereo not given) | 100
COCCNCc1ncsc1-c1ccc2c(Nc3ccc(Oc4ccccc4)cc3)ccnc2c1 | 93
O=C(Nc1ccc(OC2CCN(Cc3ccsc3)CC2)c(Cl)c1)c1ccco1 | 85
Cc1nc(NC2=NCN(CCCN3CCOCC3)CN2)nc2c(C)cccc12 | 62
Cc1ccc(NC(=O)Nc2ccc(S(=O)(=O)c3ccc(NC(=O)Nc4ccc(C)c(Cl)c4)cc3)cc2)cc1Cl | 42
O=C(Nc1ccc(-c2cccc(CN3CCC(O)CC3)c2)cc1)c1cccc(Cl)c1 | 14
COc1cccc(-c2cc(-c3ccc(NC(=O)c4ccccc4)cc3)c3c(N)ncnc3n2)c1 | 98
COc1cc2c(cc1OC)CN(CCCCNC(=O)c1ccc(NC(=O)c3cc(Cl)cc(Cl)c3)cc1)CC2 | 75
COc1ccc2nccc([C@@H](O)CN3CCC(NCc4ccc5cccc(O)c5n4)CC3)c2c1 | 40
O=C(N[C@H]1CCN(Cc2ccc(OC3CCN(Cc4ccccc4)CC3)cc2)C1)c1ccc(Cl)c(Cl)c1 | 6
N#Cc1ccc(CN2CCC(Oc3ccc(NC(=O)c4cccs4)cc3)C2)cc1 (stereo not given) | 65
O=C(Nc1nc(-c2cc(F)ccc2F)cs1)c1cncc(Br)c1 | 3
O=C(Nc1cccc(-c2cccc(-c3nc4ccc(C(F)(F)F)cc4[nH]3)c2)c1)c1cccnc1Cl | 58
NC(N)=NC(=O)Nc1cc(Cl)c(Cl)c(C(F)(F)F)c1 | 99
O=C(CNCC1CCCCC1)Nc1cc(C(F)(F)F)ccc1Cl | 67
CC(=O)Nc1cccc(C(=O)Nc2cccc(-c3csc(-c4nc5ccccc5[nH]4)c3)c2)c1 | 97
